Hello, the source for this data is patent US9018260B2, in case you need it.

Property: Seizure severity score (Average); scope: individual compounds
- System: corneal kindled male C57Bl/6 mice
- assay.details: Mouse corneal kindling model
- Format: in vivo
- measurement.setup: dose 25 mg/kg, i.p., stimulation 20 minutes after administration, Racine's scale

Reference set, count: 3
> print(dat)
                                   compound  value.reported
1  NS(=O)(=O)NC1c2c(Cl)cccc2CC1(F)F (single isomer, unassigned; (-))               0
2  NS(=O)(=O)NC1CCc2c(F)ccc(Cl)c21 (single isomer, unassigned; (+))               0
3       NS(=O)(=O)N[C@H]1CCc2cc(F)cc(Cl)c21               2

# input for lookup
Seizure severity score (Average) lookup needed for NS(=O)(=O)NC1c2c(Cl)ccc(F)c2CC1(F)F (single isomer, unassigned; (-)) , thanks.
0.25
